Target: human GABAA α5β3γ2s receptor (Homo sapiens, UniProt P18507+P31644)
Experiment: Assay A: in vitro inhibition of 3H-flumazenil binding, HEK cells expressing the human GABAA α5β3γ2s receptor
Details: read-out: Assay A: GABAA α 5 β 3 γ 2s Ki
endpoint.name: Ki (nM)
// note: answer is a bare numeric in nM

I have this compound here, Cn1nnc(-c2ccc(C(F)F)cn2)c1COc1ccc(-n2ccnc2C#N)nn1 , and I need its recorded Ki.
220

Report Ki for Cc1nnn(-c2ccc(C(F)F)cn2)c1COc1ccc(-c2ccc(C#N)nc2)nn1 please.
18

Param item = Cn1nnc(-c2ccc(C(F)F)cn2)c1COc1ccc(-c2cccc(C(N)=O)c2)nn1 ; retrieve measured Ki.
24

Name the recorded Ki for Cn1nnc(-c2ccc(C(F)F)cn2)c1COc1ccc(-c2ccc(S(C)(=O)=O)nc2)nn1 .
49

What does the record list as Ki for Cc1nnn(-c2ccc(C(F)F)cn2)c1COc1ccc(-n2nccn2)nn1 ?
28

For the compound shown here, CNc1cc(C)nn1-c1ccc(OCc2c(-c3ccc(C(F)F)cn3)nnn2C)nn1 , give the reported Ki.
2

Reported Ki, compound Cc1nnn(-c2ccc(C(F)F)cn2)c1COc1ccc(-c2ccc(C#N)s2)nn1 : ____
19

Could you tell me which Ki is on file for Cn1nnc(-c2ccc(C(F)F)cn2)c1COc1ccc(-n2ccc(C#N)n2)nn1 ?
19

# query: Ki of entry Cn1ccc(-c2ccc(OCc3c(-c4ccc(C(F)F)cn4)nnn3C)nn2)n1
25

// returns reported Ki for input Cc1nnn(-c2ccc(C(F)F)cn2)c1COc1ccc(-n2ncnc2C)nn1
12

Tell me the measured Ki of Cn1nnc(-c2ccc(C(F)F)cn2)c1COc1ccc(-n2cccn2)nn1 , please.
22

Give its Ki value. Item: Cc1nnn(-c2ccc(C(F)F)cn2)c1COc1ccc(-c2ccc(S(C)(=O)=O)nc2)nn1
21

Fill in: Ki of Cc1nnn(-c2ccc(C(F)F)cn2)c1COc1ccc(-c2cnn(C)c2C)nn1 is ___
13

Form field: reported Ki of CCn1cc(-c2ccc(OCc3c(C)nnn3-c3ccc(C(F)F)cn3)nn2)ccc1=O
10

State the recorded Ki for this entry: CCn1cc(-c2ccc(OCc3c(-c4ccc(C(F)F)cn4)nnn3C)nn2)cn1
19

Fill in the blank: the reported Ki of Cc1nnn(-c2ccc(C(F)F)cn2)c1COc1ccc(-c2ccnnc2)nn1 is ____.
16

* * *

Give pKi for every item shown.
Molecular target: human GABAA α5β3γ2s receptor (Homo sapiens, UniProt P18507+P31644)
Sequence (P18507 1-475): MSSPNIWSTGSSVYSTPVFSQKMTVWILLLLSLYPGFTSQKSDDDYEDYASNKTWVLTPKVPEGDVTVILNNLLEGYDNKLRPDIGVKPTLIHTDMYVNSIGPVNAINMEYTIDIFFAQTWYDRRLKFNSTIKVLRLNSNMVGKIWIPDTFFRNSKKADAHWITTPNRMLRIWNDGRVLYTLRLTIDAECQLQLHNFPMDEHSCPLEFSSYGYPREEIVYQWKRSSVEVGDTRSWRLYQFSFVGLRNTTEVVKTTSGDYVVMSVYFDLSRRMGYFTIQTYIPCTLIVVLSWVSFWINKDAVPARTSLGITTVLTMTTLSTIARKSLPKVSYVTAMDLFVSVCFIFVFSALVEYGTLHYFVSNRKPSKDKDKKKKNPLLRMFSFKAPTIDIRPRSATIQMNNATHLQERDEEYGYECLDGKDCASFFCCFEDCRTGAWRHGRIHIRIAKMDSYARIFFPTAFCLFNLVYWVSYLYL
Sequence (P31644 1-462): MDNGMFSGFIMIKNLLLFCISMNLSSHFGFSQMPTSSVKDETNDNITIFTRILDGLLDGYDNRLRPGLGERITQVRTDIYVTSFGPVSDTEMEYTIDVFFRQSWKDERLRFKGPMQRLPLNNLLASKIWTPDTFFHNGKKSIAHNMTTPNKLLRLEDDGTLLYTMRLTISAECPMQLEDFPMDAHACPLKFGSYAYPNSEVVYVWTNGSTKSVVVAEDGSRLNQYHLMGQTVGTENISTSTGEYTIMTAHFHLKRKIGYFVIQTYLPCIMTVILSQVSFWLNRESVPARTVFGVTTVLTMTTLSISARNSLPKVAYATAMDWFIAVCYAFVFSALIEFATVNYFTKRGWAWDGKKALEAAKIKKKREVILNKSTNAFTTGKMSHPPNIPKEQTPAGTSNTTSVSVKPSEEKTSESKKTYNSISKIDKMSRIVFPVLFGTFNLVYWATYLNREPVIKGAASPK
Assay: Assay A: in vitro inhibition of 3H-flumazenil binding, HEK cells expressing the human GABAA α5β3γ2s receptor
Details: read-out: Assay A: GABAA α 5 β 3 γ 2s Ki
Interpret pKi as the negative base-10 log of the concentration measured in mol/L.

Reported pKi for human GABAA α5β3γ2s receptor (Homo sapiens, UniProt P18507+P31644), given Cc1nnn(-c2ccc(C(F)F)cn2)c1COc1ccc(-c2c[nH]c(=O)c(F)c2)nn1 ?
7.80

Lab note: need pKi for Cc1c(-c2ccc(OCc3c(-c4ccc(C(F)F)cn4)nnn3C)nn2)cnn1C on human GABAA α5β3γ2s receptor (Homo sapiens, UniProt P18507+P31644), anyone have it?
7.62

Lab note: need pKi for Cn1nnc(-c2ccc(C(F)F)cn2)c1COc1ccc(-c2cn[nH]c2)nn1 on human GABAA α5β3γ2s receptor (Homo sapiens, UniProt P18507+P31644), anyone have it?
7.49

Recall the recorded pKi for Cc1nnn(-c2ccc(C(F)F)cn2)c1COc1ccc(-c2cnccn2)nn1 with human GABAA α5β3γ2s receptor (Homo sapiens, UniProt P18507+P31644) and state it.
8.00

State its pKi on human GABAA α5β3γ2s receptor (Homo sapiens, UniProt P18507+P31644): Cc1nnn(-c2ccc(C(F)F)cn2)c1COc1ccc(-c2cccc(C(N)=O)c2)nn1
7.82

Give pKi (human GABAA α5β3γ2s receptor (Homo sapiens, UniProt P18507+P31644)) of the following compound: CNc1cc(-c2ccc(OCc3c(-c4ccc(C(F)F)cn4)nnn3C)nn2)ccn1
7.85

Which measured pKi belongs to Cn1nnc(-c2ccc(C(F)F)cn2)c1COc1ccc(-c2cnc3nonc3c2)nn1 , tested on human GABAA α5β3γ2s receptor (Homo sapiens, UniProt P18507+P31644)?
7.31

Fill in the recorded pKi for this compound, with human GABAA α5β3γ2s receptor (Homo sapiens, UniProt P18507+P31644) as test system: CNc1cccc(-c2ccc(OCc3c(C)nnn3-c3ccc(C(F)F)cn3)nn2)n1
7.48

Give human GABAA α5β3γ2s receptor (Homo sapiens, UniProt P18507+P31644) pKi for Cc1ncc(-c2ccc(OCc3c(C)nnn3-c3ccc(C(F)F)cn3)nn2)o1
7.85

Given the entry Cc1nnn(-c2ccc(C(F)F)cn2)c1COc1ccc(-c2ccc(N)nc2)nn1 , what pKi was observed with human GABAA α5β3γ2s receptor (Homo sapiens, UniProt P18507+P31644)?
7.77

human GABAA α5β3γ2s receptor (Homo sapiens, UniProt P18507+P31644) / pKi / Cc1nnn(-c2ccc(C(F)F)cn2)c1COc1ccc(-c2cccc(C#N)n2)nn1 : value?
8.05

human GABAA α5β3γ2s receptor (Homo sapiens, UniProt P18507+P31644) / pKi / CCc1cn(-c2ccc(OCc3c(-c4ccc(C(F)F)cn4)nnn3C)nn2)nc1N : value?
8.10

Provide value of pKi for this record tested with human GABAA α5β3γ2s receptor (Homo sapiens, UniProt P18507+P31644): Cn1nnc(-c2ccc(C(F)F)cn2)c1COc1ccc(-n2cnc(C#N)c2)nn1
7.46

Lookup: pKi / human GABAA α5β3γ2s receptor (Homo sapiens, UniProt P18507+P31644) / COc1ncc(-c2ccc(OCc3c(-c4ccc(C(F)F)cn4)nnn3C)nn2)cn1
7.64

Recall the recorded pKi for Cc1nnn(-c2ccc(C(F)F)cn2)c1COc1ccc(-c2cnn(CC#N)c2)nn1 with human GABAA α5β3γ2s receptor (Homo sapiens, UniProt P18507+P31644) and state it.
7.59

// fetch human GABAA α5β3γ2s receptor (Homo sapiens, UniProt P18507+P31644) pKi for Cc1nnn(-c2ccc(C(F)F)cn2)c1COc1ccc(-n2cc(F)cn2)nn1
7.85

I'm curious: which pKi was measured for Cc1nnn(-c2ccc(C(F)F)cn2)c1COc1ccc(-n2cc(C#N)cn2)nn1 tested on human GABAA α5β3γ2s receptor (Homo sapiens, UniProt P18507+P31644)?
7.96

* * *

Test system: human MDR1 P-gp
Assay: Assessment of efflux in MDCK cells transfected with the human MDR1 gene
Format: in vitro ADME, canine
Settings: dog, pH 7.4, 37° C., read-out: MDCK-PGP Efflux ratio [PEBA/PEAB]
endpoint.name: efflux ratio
Response field accepts a number only; no unit should be typed.

Consider the compound Cc1nnn(-c2ccc(C(F)F)cn2)c1COc1ccc(-c2ccc(S(C)(=O)=O)nc2)nn1 and give its measured efflux ratio.
0.6

Look up efflux ratio: Cc1nnn(-c2ccc(C(F)F)cn2)c1COc1ccc(-c2ccc(N)nc2)nn1
1.2

Request the reported efflux ratio associated with Cn1nnc(-c2ccc(C(F)F)cn2)c1COc1ccc(-c2cn[nH]c2)nn1
6.6

Given Cc1nnn(-c2ccc(C(F)F)cn2)c1COc1ccc(-c2cnc(N)nc2)nn1 , state its recorded efflux ratio.
1.9

So what does the record say about efflux ratio for Cc1ncc(-c2ccc(OCc3c(C)nnn3-c3ccc(C(F)F)cn3)nn2)o1 ?
0.6

Please give the measured efflux ratio for this compound: Cn1nnc(-c2ccc(C(F)F)cn2)c1COc1ccc(-n2cnc(C#N)c2)nn1
2.7
